Just for reference, patent EP0308983A2 is where these values come from.

# assay: Paramagnetic relaxation properties in human plasma at 37°C
# Format: physicochemical
# applied conditions: 37°C, repeat measurement 80 minutes later
Entries whose T₂ changed by (repeat measurement) is below 4% take met; entries at or above 4% take not met.

// known answers, use as guide
[[record]]
substance_smiles = "NCC(=O)O.NCC(=O)O.O.O.[Cl-].[Cl-].[Mn+2]"
class_name = "met"

[[record]]
substance_smiles = "N[C@@H](CO)C(=O)O.N[C@@H](CO)C(=O)O.O.O.[Cl-].[Cl-].[Mn+2]"
class_name = "met"

[[record]]
substance_smiles = "O.O.O=C(O)[C@@H]1CCCN1.O=C(O)[C@@H]1CCCN1.[Cl-].[Cl-].[Mn+2]"
class_name = "not met"

[[record]]
substance_smiles = "N[C@@H](Cc1c[nH]cn1)C(=O)O.N[C@@H](Cc1c[nH]cn1)C(=O)O.O.O.[Cl-].[Cl-].[Mn+2]"
class_name = "met"

[[record]]
substance_smiles = "CSCC[C@H](N)C(=O)O.CSCC[C@H](N)C(=O)O.O.O.[Cl-].[Cl-].[Mn+2]"
class_name = "not met"

[[record]]
substance_smiles = "NC(=O)C[C@H]([NH3+])C(=O)[O-].NC(=O)C[C@H]([NH3+])C(=O)[O-].O.O.[Cl-].[Cl-].[Mn+2]"
class_name = "met"

[[record]]
substance_smiles = "C[C@H](N)C(=O)O.C[C@H](N)C(=O)O.O.O.[Cl-].[Cl-].[Mn+2]"
class_name = "met"

[[record]]
substance_smiles = "N[C@@H](CC(=O)O)C(=O)O.N[C@@H](CC(=O)O)C(=O)O.O.O.[Cl-].[Cl-].[Mn+2]"
class_name = "met"

[[record]]
substance_smiles = "O.O.O=C(O)[C@@H]1C[C@@H](O)CN1.O=C(O)[C@@H]1C[C@@H](O)CN1.[Cl-].[Cl-].[Mn+2]"
class_name = "met"

[[record]]
substance_smiles = "N[C@@H](Cc1ccc(O)cc1)C(=O)O.N[C@@H](Cc1ccc(O)cc1)C(=O)O.O.O.[Cl-].[Cl-].[Mn+2]"
class_name = "not met"


Exercise: I'd appreciate it if you could check whether C[C@@H](O)[C@H](N)C(=O)O.C[C@@H](O)[C@H](N)C(=O)O.O.O.[Cl-].[Cl-].[Mn+2] has T₂ changed by (repeat measurement) smaller than 4%.
Solution: not met

Exercise: Request: NCCCC[C@H](N)C(=O)O.NCCCC[C@H](N)C(=O)O.O.O.[Cl-].[Cl-].[Mn+2]
Solution: met

Exercise: Request: N[C@@H](Cc1ccccc1)C(=O)O.N[C@@H](Cc1ccccc1)C(=O)O.O.O.[Cl-].[Cl-].[Mn+2]
Solution: met
